TEST_SYSTEM: Acetylcholinesterase (Homo sapiens) (UniProt P22303)
Sequence (P22303 whole entry, looked up): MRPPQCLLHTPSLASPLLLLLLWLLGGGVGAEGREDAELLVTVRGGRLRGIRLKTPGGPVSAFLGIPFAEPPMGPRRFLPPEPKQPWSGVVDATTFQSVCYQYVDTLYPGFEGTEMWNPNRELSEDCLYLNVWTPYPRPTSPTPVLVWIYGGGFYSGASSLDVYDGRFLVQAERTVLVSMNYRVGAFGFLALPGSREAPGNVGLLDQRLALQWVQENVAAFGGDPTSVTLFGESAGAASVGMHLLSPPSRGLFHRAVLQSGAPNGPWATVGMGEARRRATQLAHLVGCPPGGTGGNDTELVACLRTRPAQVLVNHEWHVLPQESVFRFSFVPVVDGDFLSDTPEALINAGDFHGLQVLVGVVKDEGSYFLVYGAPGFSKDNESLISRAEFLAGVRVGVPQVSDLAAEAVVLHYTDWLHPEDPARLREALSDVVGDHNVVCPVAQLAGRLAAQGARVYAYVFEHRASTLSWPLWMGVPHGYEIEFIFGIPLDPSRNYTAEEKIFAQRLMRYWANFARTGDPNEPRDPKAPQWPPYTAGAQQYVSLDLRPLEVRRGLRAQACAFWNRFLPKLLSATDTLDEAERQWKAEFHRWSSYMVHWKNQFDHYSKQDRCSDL
EXPERIMENTAL_PROTOCOL: Acetylcholinesterase (AChE) small molecule antagonists: enzyme-based qHTS assay with human liver microsomes (AID 1347399); further: nearly all actives have a fitted effect of over 60% in size
STATED_CONDITIONS: qHTS inhibition; series mostly up to 115 µM
The source made the active and inactive calls. The call rests on the fitted dose curve.
MEASURED_ATTRIBUTE: outcome

Answered cases to consult:
[
  {
    "COMPOUND": "Nc1nc(N)c(N)c(N)n1",
    "outcome": "inactive"
  },
  {
    "COMPOUND": "O=S1OCC2C(CO1)C1(Cl)C(Cl)=C(Cl)C2(Cl)C1(Cl)Cl (stereo unspecified)",
    "outcome": "inactive"
  },
  {
    "COMPOUND": "CC1(C)C(C=C(Cl)Cl)C1C(=O)OC(C#N)c1ccc(F)c(Oc2ccccc2)c1 (stereo unspecified)",
    "outcome": "inactive"
  },
  {
    "COMPOUND": "Cc1cnc2c(C(=O)O)c(Cl)ccc2c1",
    "outcome": "inactive"
  },
  {
    "COMPOUND": "COC(=O)c1ccccc1S(=O)(=O)NC(=O)Nc1nc(C)nc(OC)n1",
    "outcome": "inactive"
  },
  {
    "COMPOUND": "O=c1c2ccccc2c(=O)c2c1cc(Cl)c1[nH]c3c([nH]c12)c(Cl)cc1c(=O)c2ccccc2c(=O)c13",
    "outcome": "inactive"
  }
]

List outcome for every entry below, keeping the order given.
1. CCOC(=O)Cc1ccccc1
2. O=c1[nH]c2cc(Cl)ccc2n1C1CCNCC1

[reply]
1. inactive
2. inactive

List outcome for every entry below, keeping the order given.
1. ClC(Cl)C(Cl)(Cl)Cl
2. CC(O)C(=O)[O][Hg][c]1ccccc1 (stereo unspecified)
3. CNC(=O)CSP(=O)(OC)OC
4. CC[N+]1(CC)CCC(OC(=O)C(O)(c2ccccc2)c2ccccc2)C1 (stereo unspecified)
5. Cc1nn(-c2cc(NS(C)(=O)=O)c(Cl)cc2Cl)c(=O)n1C(F)F

[reply]
["inactive", "inactive", "inactive", "inactive", "inactive"]

List outcome for every entry below, keeping the order given.
1. Oc1cc(Cl)cc(Cl)c1
2. Fc1ccc(C(OCCN2CCN(CCCc3ccccc3)CC2)c2ccc(F)cc2)cc1
3. CC(=O)C(Cl)C(=O)N(C)C (stereo unspecified)

[reply]
inactive
inactive
inactive

Values from PubChem BioAssay (Tox21)
